- studySystem: 5-HT1A (Homo sapiens)
- Sequence (P08908 1-422): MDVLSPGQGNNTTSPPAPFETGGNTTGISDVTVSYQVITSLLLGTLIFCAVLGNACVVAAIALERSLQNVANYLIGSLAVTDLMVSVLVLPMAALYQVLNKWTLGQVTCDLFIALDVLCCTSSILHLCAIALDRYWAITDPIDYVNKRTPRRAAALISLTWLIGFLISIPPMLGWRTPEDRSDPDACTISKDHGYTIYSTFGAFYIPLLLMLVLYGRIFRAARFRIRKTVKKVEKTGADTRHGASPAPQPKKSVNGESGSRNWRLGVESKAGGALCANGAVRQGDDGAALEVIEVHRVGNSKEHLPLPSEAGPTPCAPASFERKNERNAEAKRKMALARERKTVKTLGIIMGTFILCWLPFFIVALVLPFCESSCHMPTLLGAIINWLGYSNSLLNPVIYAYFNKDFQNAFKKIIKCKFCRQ
- assayExplanation: 5HT1A Radioligand Receptor Binding Assay ([3H]-8-OH-DPAT, CHO cell membranes)
- Set-up: expressed in transfected cells; host or cells: CHO cells
- recordedConditions: [3H]-8-OH-DPAT; CHO membranes, human 5-HT1A; read-out: 5-HT1A Receptor Binding IC50
pIC50: −log10 of the molar value.
Here the recorded pIC50 is given for each entry.
assayReadout: pIC50

> print(dat)
                     compoundstructurestring            studysystem  assayreadout  valuereported
 1  COCCn1c(=O)n(C/C=C\CN2CCN(c3cccc(C(F)(F)F)c3)CC2)c2ccccc21  5-HT1A (Homo sapiens)         pIC50           8.31
 2  O=c1n(C/C=C/CN2CCN(c3cccc(Cl)c3)CC2)c2ccccc2n1CCO  5-HT1A (Homo sapiens)         pIC50           7.96
 3  CS(=O)(=O)NCCn1c(=O)n(C/C=C\CN2CCN(c3cccc(Cl)c3)CC2)c2ccccc21  5-HT1A (Homo sapiens)         pIC50           8.30
 4  CS(=O)(=O)NCCn1c(=O)n(C/C=C/CN2CCN(c3cccc(C(F)(F)F)c3)CC2)c2ccccc21  5-HT1A (Homo sapiens)         pIC50           8.82
 5  O=c1n(C/C=C\CN2CCN(c3ccccc3)CC2)c2ccccc2n1CCN1CCCCC1  5-HT1A (Homo sapiens)         pIC50           7.82
 6  O=c1n(C/C=C\CN2CCN(c3cccc(C(F)(F)F)c3)CC2)c2ccccc2n1CCN1CCCCC1  5-HT1A (Homo sapiens)         pIC50           8.51
 7  CCNC(=O)OCCn1c(=O)n(C/C=C/CN2CCN(c3cccc(C(F)(F)F)c3)CC2)c2ccccc21  5-HT1A (Homo sapiens)         pIC50           8.74
 8  O=c1n(C/C=C/CN2CCN(c3cccc(C(F)(F)F)c3)CC2)c2ccccc2n1CCN1CCOCC1  5-HT1A (Homo sapiens)         pIC50           8.39
 9  COCCn1c(=O)n(C/C=C/CN2CCN(c3ccccn3)CC2)c2ccccc21  5-HT1A (Homo sapiens)         pIC50           8.09
10  CCNC(=O)OCCn1c(=O)n(C/C=C\CN2CCN(c3cccc(C(F)(F)F)c3)CC2)c2ccccc21  5-HT1A (Homo sapiens)         pIC50           8.26
11  CC(=O)NCCn1c(=O)n(C/C=C\CN2CCN(c3cccc(C(F)(F)F)c3)CC2)c2ccccc21  5-HT1A (Homo sapiens)         pIC50           8.06
12  CCNC(=O)OCCn1c(=O)n(C/C=C/CN2CCN(c3ccccn3)CC2)c2ccccc21  5-HT1A (Homo sapiens)         pIC50           7.85
13  COCCn1c(=O)n(C/C=C/CN2CCN(c3cccc(Cl)c3)CC2)c2ccccc21  5-HT1A (Homo sapiens)         pIC50           8.10
14  CC(=O)NCCn1c(=O)n(C/C=C\CN2CCN(c3ccccc3Cl)CC2)c2ccccc21  5-HT1A (Homo sapiens)         pIC50           8.51
15  O=c1n(C/C=C\CN2CCN(c3cccc(Cl)c3)CC2)c2ccccc2n1CCN1CCOCC1  5-HT1A (Homo sapiens)         pIC50           8.06
16  CS(=O)(=O)NCCn1c(=O)n(C/C=C/CN2CCN(c3ccccn3)CC2)c2ccccc21  5-HT1A (Homo sapiens)         pIC50           8.09
17  CCNC(=O)OCCn1c(=O)n(C/C=C/CN2CCN(c3cccc(Cl)c3)CC2)c2ccccc21  5-HT1A (Homo sapiens)         pIC50           8.10
18  CS(=O)(=O)NCCn1c(=O)n(C/C=C/CN2CCN(c3cccc(Cl)c3)CC2)c2ccccc21  5-HT1A (Homo sapiens)         pIC50           9.21
